- Test system: HIV infected lymphocyte derived CEM cells
- RUN_DESCRIPTION: Cellular infection assay in CEM cells, XTT cytopathic procedure (EC50)
- EXPERIMENTAL_CONDITIONS: read-out: Antiviral Efficacy EC50; HIV infected CEM cells
RESULT_TYPE: pEC50
Give bare numbers, as −log10 of the molar value.

Q) What measured pEC50 goes with Cc1cc(SC2=C(O)CC(CCc3cc[nH]n3)(C(C)C)OC2=O)c(C(C)(C)C)cc1N (stereo not shown) [Example 41] ?
A) 4.70

* * *

Consider the following molecules; for each one, report its pKi.
- SYSTEM_UNDER_TEST: Recombinant HIV-1 protease (Human immunodeficiency virus type 1 group M subtype B, UniProt P04585)
- Construct: Recombinant HIV-1 protease (>96% purity); purchased Bachem Bioscience, Inc. (King of Prussia, Pa.)
- RUN_DESCRIPTION: HIV protease assay (Ki determination, HPLC readout of substrate III cleavage)
- Format: biochemical
Give bare numbers, as −log10 of the molar value.

INSERT INTO measurements (molecule, measurement) VALUES
  ('Cc1cc(SC2=C(O)CC(CCc3ccsc3)(C(C)C)OC2=O)c(C(C)(C)C)cc1NS(=O)(=O)c1ccc(C(F)(F)F)cn1 (racemic)', 10.10),
  ('Cc1cc(SC2=C(O)CC(CCc3ccsc3)(C(C)C)OC2=O)c(C(C)(C)C)cc1N (racemic)', 9.06),
  ('Cc1c(F)cccc1CCC1(C(C)C)CC(O)=C(Sc2cc3sc(N)nc3cc2C(C)(C)C)C(=O)O1 (racemic)', 9.10);

# map each molecule to its pKi
1. CC(C)[C@]1(CCc2cccc(F)c2)CC(O)=C(Sc2cc3sc(N)nc3cc2C(C)(C)C)C(=O)O1
2. Cc1cc(SC2=C(O)CC(CCc3csc(C(C)C)n3)(C(C)C)OC2=O)c(C(C)(C)C)cc1CO (racemic)
3. Cc1ccc(C(C)(C)C)c(SC2=C(O)CC(CCc3ccc(CO)s3)(C(C)C)OC2=O)c1 (racemic)

A)
9.36
8.80
8.77

# map each molecule to its pKi
1. Cc1cc(SC2=C(O)CC(CCc3ccc(CO)s3)(C(C)C)OC2=O)c(C(C)(C)C)cc1O (racemic)
2. CC(C)C1(CCc2ccccc2CO)CC(O)=C(Sc2cc3cc[nH]c3cc2C(C)(C)C)C(=O)O1 (racemic)

A)
9.43
9.17

# map each molecule to its pKi
1. Cc1cc(SC2=C(O)CC(CCc3ccc4[nH]ccc4c3)(C(C)C)OC2=O)c(C(C)(C)C)cc1CO (racemic)
2. Cc1cc(SC2=C(O)CC(CCc3csc(N)n3)(C(C)C)OC2=O)c(C(C)(C)C)cc1CO (racemic)
3. Cc1cc(SC2=C(O)CC(CCc3ccc(N)cc3)(C(C)C)OC2=O)c(C(C)(C)C)cc1CO (centres unmarked) [Reference Agent 1, reference compound]
4. CC(C)c1cc2ncsc2cc1SC1=C(O)C[C@@](CCc2ccc(O)cc2)(C(C)C)OC1=O
5. Cc1cc(SC2=C(O)CC(CCC3CCCO3)(C(C)C)OC2=O)c(C(C)(C)C)cc1N (racemic)

A)
9.01
9.02
9.37
9.40
7.96

Q) What measured pKi goes with Cc1cc(SC2=C(O)CC(CCc3cc[nH]n3)(C(C)C)OC2=O)c(C(C)(C)C)cc1CO (racemic) ?
A) 9.55
